- method summary: Micellar cholesterol release: cholesterol remaining in bile acid micelles after incubation with test substance, filtration and GC
- cond: Embodiment 1; amount of addition raised up to 0.5 mM; incubated 37° C. 1 hour; FIG. 1
readout: concentration of cholesterol in the micelles

compound	reported measurement
O=C(O[C@@H]1Cc2c(O)cc(O)cc2O[C@@H]1c1cc(O)c(=O)c2c(O)c(O)cc([C@H]3Oc4cc(O)cc(O)c4C[C@H]3OC(=O)c3cc(O)c(O)c(O)c3)c2c1)c1cc(O)c(O)c(O)c1 [theaflavin-3,3′-digallate]	did not change
O=c1c(O)cc([C@H]2Oc3cc(O)cc(O)c3C[C@H]2O)cc2c([C@H]3Oc4cc(O)cc(O)c4C[C@H]3O)cc(O)c(O)c12	did not change

// provenance: patent US20090156662A1
